biological target: Human FAAH (Homo sapiens, UniProt O00519); construct: made in house; assay: FAAH enzyme assay (glutamate dehydrogenase coupled, oleamide substrate), irreversible inhibition kinetics; assay type: biochemical; settings: pH 7.4, human FAAH, 30° C., read-out: hFAAH Kinact/Ki
Sequence (O00519 whole entry): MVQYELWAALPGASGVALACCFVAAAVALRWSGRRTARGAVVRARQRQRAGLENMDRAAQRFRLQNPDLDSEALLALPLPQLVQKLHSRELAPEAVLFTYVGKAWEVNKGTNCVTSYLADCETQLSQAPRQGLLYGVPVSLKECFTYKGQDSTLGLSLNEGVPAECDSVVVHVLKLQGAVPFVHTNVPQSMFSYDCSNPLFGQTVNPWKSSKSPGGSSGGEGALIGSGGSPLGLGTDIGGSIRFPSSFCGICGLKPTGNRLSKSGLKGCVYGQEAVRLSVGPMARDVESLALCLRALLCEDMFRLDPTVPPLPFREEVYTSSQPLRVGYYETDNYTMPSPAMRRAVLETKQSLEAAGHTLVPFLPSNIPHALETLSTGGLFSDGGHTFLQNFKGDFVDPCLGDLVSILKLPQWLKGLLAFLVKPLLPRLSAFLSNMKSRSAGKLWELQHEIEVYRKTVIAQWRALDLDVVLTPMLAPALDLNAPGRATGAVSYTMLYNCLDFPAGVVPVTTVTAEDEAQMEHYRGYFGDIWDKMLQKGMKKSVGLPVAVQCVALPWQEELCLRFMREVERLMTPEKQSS
Quick rule: kinact/KI of at least 2000 M⁻¹ s⁻¹ means class 1, below that means class 0.

[[record]]
compound = "Cc1cncc(NC(=O)N2CC/C(=C\\c3cccc(Oc4ccc(C(F)(F)F)cn4)c3)C(C)C2)c1 (single isomer, unassigned)"
qualitativelabel = "class 0"

[[record]]
compound = "COc1cnc(NC(=O)N2CC/C(=C\\c3cccc(Oc4ccc(C(F)(F)F)cn4)c3)C(C)C2)cn1 (single isomer, unassigned)"
qualitativelabel = "class 1"

[[record]]
compound = "CC1CN(C(=O)Nc2ccc(C#N)nc2)CC/C1=C\\c1cccc(Oc2ccc(C(F)(F)F)cn2)c1 (single isomer, unassigned)"
qualitativelabel = "class 1"

[[record]]
compound = "Cc1cnc(NC(=O)N2CC/C(=C\\c3cccc(Oc4ccc(C(F)(F)F)cn4)c3)C(C)C2)cn1 (single isomer, unassigned)"
qualitativelabel = "class 1"

[[record]]
compound = "CC1CN(C(=O)Nc2cccnc2)CC/C1=C\\c1cccc(Oc2ccc(Cl)cn2)c1 (racemic)"
qualitativelabel = "class 1"

[[record]]
compound = "COc1ccc(NC(=O)N2CC/C(=C\\c3cccc(Oc4ccc(C(F)(F)F)cn4)c3)C(C)C2)cn1 (single isomer, unassigned)"
qualitativelabel = "class 1"

[[record]]
compound = "COc1cncc(NC(=O)N2CC/C(=C\\c3cccc(Oc4ccc(C(F)(F)F)cn4)c3)C(C)C2)n1 (single isomer, unassigned)"
qualitativelabel = "class 0"

[[record]]
compound = "CC1CN(C(=O)Nc2cnc3[nH]ccc3c2)CC/C1=C\\c1cccc(Oc2ccc(C(F)(F)F)cn2)c1 (single isomer, unassigned)"
qualitativelabel = "class 0"

[[record]]
compound = "CC1CN(C(=O)Nc2cccnc2)CC/C1=C\\c1cccc(Oc2ccc(Br)cn2)c1 (racemic)"
qualitativelabel = "class 0"


Data provenance: patent US20110053949A1
